target: PI3Kα (Homo sapiens)
Sequence (P42336 whole entry): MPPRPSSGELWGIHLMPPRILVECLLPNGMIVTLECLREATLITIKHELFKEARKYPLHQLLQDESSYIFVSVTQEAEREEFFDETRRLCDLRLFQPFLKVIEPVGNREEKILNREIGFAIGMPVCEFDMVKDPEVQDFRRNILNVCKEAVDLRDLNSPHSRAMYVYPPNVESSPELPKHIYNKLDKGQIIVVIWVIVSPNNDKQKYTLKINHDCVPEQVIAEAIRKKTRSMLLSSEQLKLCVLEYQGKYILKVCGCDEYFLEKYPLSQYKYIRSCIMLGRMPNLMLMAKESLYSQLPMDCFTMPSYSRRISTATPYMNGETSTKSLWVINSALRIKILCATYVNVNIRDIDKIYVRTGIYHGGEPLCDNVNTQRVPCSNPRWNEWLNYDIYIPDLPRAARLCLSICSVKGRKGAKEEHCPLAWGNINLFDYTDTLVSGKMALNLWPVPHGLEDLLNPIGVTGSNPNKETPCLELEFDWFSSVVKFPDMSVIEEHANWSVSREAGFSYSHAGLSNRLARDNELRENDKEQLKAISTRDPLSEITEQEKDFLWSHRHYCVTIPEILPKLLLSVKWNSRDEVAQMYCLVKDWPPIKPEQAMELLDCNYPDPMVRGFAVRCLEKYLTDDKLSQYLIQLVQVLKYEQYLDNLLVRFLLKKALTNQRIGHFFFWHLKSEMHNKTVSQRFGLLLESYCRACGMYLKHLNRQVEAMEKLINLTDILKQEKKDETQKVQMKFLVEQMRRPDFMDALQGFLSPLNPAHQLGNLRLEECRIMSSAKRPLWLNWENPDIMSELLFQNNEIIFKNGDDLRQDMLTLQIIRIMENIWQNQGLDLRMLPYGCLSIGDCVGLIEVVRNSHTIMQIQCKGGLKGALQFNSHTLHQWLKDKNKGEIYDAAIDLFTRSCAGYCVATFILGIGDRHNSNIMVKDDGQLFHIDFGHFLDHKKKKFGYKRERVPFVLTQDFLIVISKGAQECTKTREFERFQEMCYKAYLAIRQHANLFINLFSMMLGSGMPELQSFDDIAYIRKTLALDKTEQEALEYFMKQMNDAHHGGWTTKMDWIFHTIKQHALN
Sequence (P27986 whole entry partner): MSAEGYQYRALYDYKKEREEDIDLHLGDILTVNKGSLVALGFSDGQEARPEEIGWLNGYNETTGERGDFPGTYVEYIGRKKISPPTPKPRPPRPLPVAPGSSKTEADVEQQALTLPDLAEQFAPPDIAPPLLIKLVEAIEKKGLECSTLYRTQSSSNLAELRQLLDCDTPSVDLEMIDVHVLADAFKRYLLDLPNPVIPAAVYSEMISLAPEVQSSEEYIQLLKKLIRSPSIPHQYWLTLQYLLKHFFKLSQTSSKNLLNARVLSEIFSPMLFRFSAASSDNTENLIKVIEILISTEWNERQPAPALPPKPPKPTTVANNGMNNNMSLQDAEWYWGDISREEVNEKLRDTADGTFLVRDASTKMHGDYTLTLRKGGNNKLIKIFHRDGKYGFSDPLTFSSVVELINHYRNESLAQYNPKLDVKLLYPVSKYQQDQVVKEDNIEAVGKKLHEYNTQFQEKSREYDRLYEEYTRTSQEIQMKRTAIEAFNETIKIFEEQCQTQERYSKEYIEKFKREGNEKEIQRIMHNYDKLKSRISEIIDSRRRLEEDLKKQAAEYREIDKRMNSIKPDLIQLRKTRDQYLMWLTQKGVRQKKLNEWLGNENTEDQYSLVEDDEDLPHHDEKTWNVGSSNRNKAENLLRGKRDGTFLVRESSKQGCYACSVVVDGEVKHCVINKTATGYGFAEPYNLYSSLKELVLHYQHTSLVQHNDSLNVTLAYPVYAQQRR
value-kind: IC50 (nM)
One number for each entry, in nM.

Problem: Identify IC50 associated with the molecule O=C1NC(=O)/C(=C/c2ccc3nccc(-c4ccncc4)c3c2)S1 [Example 1]
Solution: 1
